Sourced from patent US20150203579A1

Recorded koff values for a group of binders are listed next.
target-entity: T1, recombinant human PD-1 expressed with a C-terminal myc-myc-hexahistidine tag (human)
T1 construct: also called hPD-1-MMH; human PD-1-MMH
T1 sequence (chain, as listed by the source limits assumed): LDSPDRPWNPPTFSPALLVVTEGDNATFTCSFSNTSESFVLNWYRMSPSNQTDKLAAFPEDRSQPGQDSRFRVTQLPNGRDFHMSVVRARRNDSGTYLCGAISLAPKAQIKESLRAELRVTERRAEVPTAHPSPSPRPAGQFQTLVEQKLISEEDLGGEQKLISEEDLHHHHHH
assay-summary: SPR (Biacore), mAb captured, hPD-1-MMH injected, 25 C;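 note: rate constants obtained by fitting sensorgrams to a 1:1 binding model, KD derived as kd/ka and half-life as ln2/(60·kd) in minutes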

INSERT INTO measurements (binder, measured_value) VALUES
  ('H2aM7796N (antibody, mouse IgG2a, V domains shown, Human variable domains, mouse IgG2a Fc; also called H2M7796N) VH: QVQLVESGGGVVQPGRSLRLSCAASGFTFSSYGMHWVRQAPGKGLEWVAIIWSDGDSEYNLDSVKGRFTISRDNSKNTLYLQMNSLRVEDSAVYYCARDRDLEDIWGQGTMVTVSS VL: DIQMTQSPSSLSASVGDRVTITCRASQGIRNDLGWYQQKPGKAPKRLIYAASNLQSGVPSRFSGSGSGTEFTLTISSLQPEDFATYYCLQHNSYPLTFGGGTKVEIK', '0.00193 s⁻¹');

Quick note, koff for H2aM7791N (antibody, mouse IgG2a, V domains shown, Human variable domains, mouse IgG2a Fc; also called H2M7791N) VH: QMQLQQWGAGLLKPSETLSLTCVVYGGSLNGYYWSWIRQSPGKGLEWIGEIDHSGSTNYNPSLKNRVTMSVDTSKIQFSLKLTSVTVADTAVYYCAREGLLPFDYWGQGTLVTVSS VL: EIVLTQSPGTLSLSPGERVTLSCRASQSVYSNYLAWYQQNPGQAPRLLIYAASNRATGIPDRFSGSGSGTDFTLTISRLEPEDFAVYYCHQYATSPWTFGQGTKVEIK landed at 0.000706 s⁻¹
